Where do the numbers come from? From patent US10040748B2.

experiment: In vivo pharmacokinetic studies in rats (IV and PO dosing, plasma); settings: plasma; rat, 200 mg/kg IV, mean of N=4, Cmin at 2 hr
Structures can show the parent of a compound that is named as a salt.
Quantity: concentration at 2 hr (ng/mL)
Numbers only, in ng/mL.

Ask | Given O=C(O)CCCO [4-hydroxybutyric acid, sodium salt, sodium salt of 4-hydroxybutyric acid, reference compound] , state its recorded concentration at 2 hr.
Reply | 8000
